Target: aromatase (CYP19A1) (Homo sapiens, UniProt P11511)
Construct: host or cells: JEG-3 cells
Sequence (P11511 whole entry): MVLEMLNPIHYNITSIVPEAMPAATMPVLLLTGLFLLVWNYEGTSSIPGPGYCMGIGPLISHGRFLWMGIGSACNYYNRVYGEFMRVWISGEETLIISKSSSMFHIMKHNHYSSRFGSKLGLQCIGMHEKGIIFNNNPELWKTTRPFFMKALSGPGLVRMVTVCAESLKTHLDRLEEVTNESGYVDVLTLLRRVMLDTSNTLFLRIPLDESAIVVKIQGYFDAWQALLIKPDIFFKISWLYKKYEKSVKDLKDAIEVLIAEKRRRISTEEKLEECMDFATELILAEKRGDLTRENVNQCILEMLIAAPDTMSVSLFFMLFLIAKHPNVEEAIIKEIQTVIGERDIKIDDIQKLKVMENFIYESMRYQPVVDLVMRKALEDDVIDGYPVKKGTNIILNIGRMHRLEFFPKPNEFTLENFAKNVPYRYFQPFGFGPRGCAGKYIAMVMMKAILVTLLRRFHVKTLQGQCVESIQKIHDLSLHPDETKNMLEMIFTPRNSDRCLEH
Experiment: Aromatase activity assay, modified tritiated water assay in JEG-3 cells
Format: cell-based
Conditions: JEG-3 cells, 1 h incubation, triplicate; read-out: Arom IC50
pIC50: −log10 of the molar value.
Below is a list of entries, each paired with its recorded pIC50 value.
measurement.name: pIC50

compound: N#Cc1ccc(C(c2cc3ccc(OS(N)(=O)=O)cc3o2)n2cncn2)cc1 (centres unmarked) [10a]
measurement.qualifier: =
number: 8.82

compound: Cc1c(C(=O)c2ccc(Cl)cc2)oc2cc(OC(N)=O)ccc12 [compound 21]
measurement.qualifier: ≤
number: 6.00

compound: Cc1c(C(=O)c2ccc(Cl)cc2Cl)oc2cc(OS(N)(=O)=O)ccc12 [19d]
measurement.qualifier: =
number: 7.70

compound: Cc1c(C(=O)c2ccc(F)cc2)oc2cc(OS(N)(=O)=O)ccc12 [19a]
measurement.qualifier: =
number: 7.30

compound: NS(=O)(=O)Oc1ccc2cc(C(=O)c3ccc(Br)cc3)oc2c1 [18c]
measurement.qualifier: <
number: 6.00
